conditions: in methanol, 298.15 K
endpoint: solubility (mole fraction)
Respond with the number and no other words.

GET /value?item= Nc1nc(N)nc(-c2ccncc2)n1 &field=solubility (mole fraction) returns 0.0017

----------
settings: in THF, 298.15 K
endpoint: solubility (mole fraction)

The measured solubility (mole fraction) associated with Nc1nc(N)nc(-c2ccncc2)n1 reads 0.00362

----------
settings: in methanol, 308.15 K
endpoint: solubility (mole fraction)

molecule Nc1nc(N)nc(-c2ccncc2)n1 , solubility (mole fraction) observed: 0.00214

----------
conditions: in n-propanol, 318.15 K
endpoint: solubility (mole fraction)
Keep the answer to the number alone.

response.value for Nc1nc(N)nc(-c2ccncc2)n1 (field: solubility (mole fraction)) = 0.00153

----------
settings: in THF, 313.15 K
endpoint: solubility (mole fraction)
Just the number, please.

Sample Nc1nc(N)nc(-c2ccncc2)n1 ; solubility (mole fraction) observed: 0.00433

----------
conditions: in isopropanol, 313.15 K
endpoint: solubility (mole fraction)
Lab note: record the figure alone, no unit after it.

Reported solubility (mole fraction) ( Nc1nc(N)nc(-c2ccncc2)n1 ) = 0.00116

----------
conditions: in THF, 303.15 K
endpoint: solubility (mole fraction)

Measured solubility (mole fraction), Nc1nc(N)nc(-c2ccncc2)n1 : 0.0039

----------
settings: in methanol, 293.15 K
endpoint: solubility (mole fraction)
A bare number is all that is needed in reply.

Lab book: solubility (mole fraction) of Nc1nc(N)nc(-c2ccncc2)n1 noted as 0.00149

----------
settings: in n-propanol, 293.15 K
endpoint: solubility (mole fraction)

Entry under test: Nc1nc(N)nc(-c2ccncc2)n1 . Its solubility (mole fraction) was 0.00072

----------
conditions: in THF, 318.15 K
endpoint: solubility (mole fraction)

Entry under test: Nc1nc(N)nc(-c2ccncc2)n1 . Its solubility (mole fraction) was 0.00455

----------
conditions: in ethanol, 288.15 K
endpoint: solubility (mole fraction)
Write no unit; give the number alone.

Nc1nc(N)nc(-c2ccncc2)n1 yielded solubility (mole fraction) of 0.000734

----------
conditions: in methanol, 288.15 K
endpoint: solubility (mole fraction)
Hey, just send me the number, nothing else.

What the record says about Nc1nc(N)nc(-c2ccncc2)n1 : solubility (mole fraction) is 0.00138

----------
conditions: in n-propanol, 298.15 K
endpoint: solubility (mole fraction)
Answer as a number with no unit attached.

Lookup result for Nc1nc(N)nc(-c2ccncc2)n1 ; measured solubility (mole fraction): 0.00083

----------
details: in ethanol, 303.15 K
endpoint: solubility (mole fraction)
Response field accepts a number only; no unit should be typed.

The compound listed as Nc1nc(N)nc(-c2ccncc2)n1 has a reported solubility (mole fraction) of 0.0011

----------
details: in isopropanol, 288.15 K
endpoint: solubility (mole fraction)
Quick one: just the number, no unit, thanks!

Lab note: Nc1nc(N)nc(-c2ccncc2)n1 gave solubility (mole fraction) of 0.000426

----------
details: in ethanol, 298.15 K
endpoint: solubility (mole fraction)
Just the number.

solubility (mole fraction) reading for Nc1nc(N)nc(-c2ccncc2)n1 : 0.000925

----------
conditions: in n-propanol, 313.15 K
endpoint: solubility (mole fraction)
Write no unit; give the number alone.

Per the records, this compound ( Nc1nc(N)nc(-c2ccncc2)n1 ) has solubility (mole fraction) equal to 0.00128

----------
details: in n-propanol, 303.15 K
endpoint: solubility (mole fraction)
Output: the number by itself.

// Nc1nc(N)nc(-c2ccncc2)n1 : solubility (mole fraction) value = 0.000942
